Test system: SK-OV-3 ovarian
Assay: NCI-60 one-dose screen, 48 h (100 = growth as untreated, 0 = no growth, -100 = all killed)
Conditions: 10 µM
Compounds without any hit were thinned out: in the full panel of roughly 83,000, 20% have a hit.
growth for assorted compounds
Reply numerically in %, unit not repeated.

Below, 2 compounds whose answers are already recorded.
Problem: Endpoint output: growth of CN(C)C(C)(C)CC(C)(C)C . Value?
Result: 109

Problem: Endpoint output: growth of Brc1cnc2ccccc2c1 . Value?
Result: 111

Query compound follows.
Problem: Endpoint output: growth of O=C(Nc1ccccc1)OCCc1ccccc1 . Value?
Result: 110
